experiment: Tissue distribution in SW female mice, intravenous (Example 1); assay type: in vivo; conditions: mouse, brain, iv, first experiment, 25 mg/kg intravenously, 30 min after injection, read-out: brain concentration as % of the plasma concentration
measure: Kp at 30 min

Could you share which Kp at 30 min value was measured for CN(NC(=O)CC(=O)NN(C)C(=S)C1CC1)C(=S)C1CC1 [Compound (18)] ?
~0.07

====

test: Tissue distribution in SW female mice, intravenous (Example 1); assay type: in vivo; conditions: mouse, brain, iv, first experiment, 25 mg/kg intravenously, 30 min after injection, read-out: concentration in brain
measure: concentration at 30 min

Could you share which concentration at 30 min value was measured for CN(NC(=O)CC(=O)NN(C)C(=S)C1CC1)C(=S)C1CC1 [Compound (18)] ?
~2000 nM
